# assay system: recombinant human FLAP protein (Homo sapiens, UniProt P20292)
# Construct: made in house; host or cells: Sf9 insect cells (membrane fraction, 100,000 x g pellet)
# Sequence (P20292 whole entry): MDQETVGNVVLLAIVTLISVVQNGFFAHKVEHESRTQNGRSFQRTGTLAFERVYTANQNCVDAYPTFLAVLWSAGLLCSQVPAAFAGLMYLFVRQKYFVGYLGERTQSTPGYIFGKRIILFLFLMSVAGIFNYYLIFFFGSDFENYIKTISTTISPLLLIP
# measurement description: FLAP binding assay (Scintillation Proximity Assay, displacement of [125I]L-691,831)
# assay setup: read-out: Human FLAP SPA Binding (IC50 nM)
IC50 strictly under 5 nM means 1; at 5 nM or over means -1.

compound	qualitative label
Nc1ncc(-c2ccc(C3(c4cn(CC(=O)O)c5ccccc45)CCC3)cc2)cn1	-1
CN(C)CCn1cc(-c2cc([C@@](C)(c3ccc(-c4cnc(N)nc4)cc3)C3CC3)no2)cn1	1
Cn1cc(-c2cc(C(C)(c3ccc(-c4cnc(N)nc4)nc3)C3CC3)no2)cn1 (centres unmarked)	-1
CC(C)C(C)(c1ccc(-c2cnc(N)nc2)cc1)c1cn(Cc2ccccn2)c2c(F)cccc12 (centres unmarked)	1
Nc1ncc(-c2ccc(C3(c4c[nH]c5c(C(=O)N6CCC(O)C6)cccc45)CCC3)cc2)cn1 (centres unmarked)	1

Input line: Here's an entry: CN(C)C(=O)Cn1cc(-c2coc(C(C)(c3ccc(-c4cnc(N)nc4)nc3)C3CC3)n2)cn1 (centres unmarked) . Is its IC50 below 5 nM?
Output line: -1

Input line: Given the entry "Nc1ncc(-c2ccc(C3(c4nc(-c5cccnc5)no4)CCC3)cc2)cn1" , would its reported IC50 be below 5 nM?
Output line: -1

Data origin, for the record: patent US9174980B2
